System: wild-type HCT-116 cells
ASSAY_METHOD_TEXT: Cell proliferation (MTS), wild-type HCT-116
Assay type: cell-based
TEST_CONTEXT: Homo sapiens, 240 h; wild-type HCT-116, 10 days with compound, MTS reading; read-out: IC50 HCT116 WT
MEASURED_METRIC: IC50 (nM)
Numbers only, in nM.

> print(dat)
                                   compound                   target  recorded.measurement
1  Cc1cncc(C#Cc2ccc3c(c2)OC[C@H]3N(C)C(=O)c2cc3c(cc2Cl)nc(N)c2cnn(C)c23)c1 [Compound 65A]  wild-type HCT-116 cells                   141
2  Cc1c(C#Cc2ccc3c(c2)OC[C@H]3N(C)C(=O)c2cc3c4c(c(N)nc3cc2Cl)COC4)cnn1C [Compound 52A]  wild-type HCT-116 cells                   487

Below is a list of compounds. For each, state its recorded IC50.
1. Cc1c(C#Cc2ccc3c(c2)OCC3N(C)C(=O)c2ccc3nc(N)c4cnn(C)c4c3c2)cnn1C (stereo not shown)
2. [2H]C([2H])([2H])N(C(=O)c1cc2c(cc1F)nc(N)c1cnn(C)c12)[C@@H]1COc2cc(C#Cc3cnn(C)c3)ccc21 [Compound 79A]
3. CN(C(=O)c1ccc2nc(N)c3cnn(C)c3c2c1)C1COc2cc(C#Cc3cnn(C)c3)ccc21 (stereo not shown)
4. CN(C(=O)c1cc2c(cc1F)nc(N)c1cnn(C)c12)C1COc2cc(C#Cc3cnn(C(F)F)c3)ccc21 (stereo not shown)
5. CN(C(=O)c1cc2c3c(c(N)nc2cc1Cl)COC3)[C@@H]1COc2cc(C#Cc3cnn(C)c3)ccc21 [Compound 40A]

1. 1500
2. 304
3. 1800
4. 1780
5. 483

Reference for the values: patent EP4755886A1
